The reported numbers originate from patent US20140243292A1.

# SUBJECT_OF_TEST: human NCX1 (Homo sapiens, UniProt P32418)
# Construct: expressed in transfected cells
# METHOD: NCX1 inhibition, reverse mode (Ca2+ influx into cells), FLIPR Fluo-4 assay
# Assay type: cell-based
# CONDITION_LABEL: inhibition of NCX1 in reverse mode (Ca2+ influx into cells); read-out: NCX1rv IC50
Counter-ions that a name gives are not always drawn.
ASSAY_METRIC: IC50

**Q:** What does the record list as IC50 for O=C(N[C@H]1CCCC[C@H]1C(=O)O)c1cnc(Oc2ccc3c(c2)CC[C@@H](c2ccccc2)O3)s1 ?
**A:** 400 nM

**Q:** Then O=C(NCCO)c1csc(Oc2ccc3c(c2)CC[C@@H](c2ccccc2)O3)n1 ?
**A:** 120 nM

**Q:** Also O=C(Cc1cccnc1)NCc1cnc(Oc2ccc3c(c2)CCC(c2cccc(F)c2)O3)s1 (stereo not shown) [compound 45, hydrochloride] , if possible.
**A:** 100 nM

**Q:** Follow-up entry: COC(=O)[C@@H]1[C@@H]2C[C@@H]2CN1C(=O)c1cnc(Oc2ccc3c(c2)CC[C@@H](c2ccccc2)O3)s1
**A:** 900 nM

**Q:** Also COC(=O)C1CN(C(=O)c2cnc(Oc3ccc4c(c3)CC[C@@H](c3ccccc3)O4)s2)CC1C(F)(F)F (stereo partly shown) ?
**A:** 300 nM

**Q:** Do the same for COC(=O)C1CN(C(=O)c2cnc(Oc3ccc4c(c3)CC[C@@H](c3ccccc3)O4)s2)CC1C (stereo partly shown) please
**A:** 300 nM

**Q:** Would you mind doing CCOC(=O)C1(NC(=O)c2cnc(Oc3ccc4c(c3)CC[C@@H](c3ccccc3)O4)s2)CC1 as well?
**A:** 600 nM
